- Tested on: Human orexin receptor type 2 (Homo sapiens, UniProt O43614)
- Construct: expressed in transfected cells; host or cells: CHO cells (transient expression)
- Sequence (O43614 whole entry): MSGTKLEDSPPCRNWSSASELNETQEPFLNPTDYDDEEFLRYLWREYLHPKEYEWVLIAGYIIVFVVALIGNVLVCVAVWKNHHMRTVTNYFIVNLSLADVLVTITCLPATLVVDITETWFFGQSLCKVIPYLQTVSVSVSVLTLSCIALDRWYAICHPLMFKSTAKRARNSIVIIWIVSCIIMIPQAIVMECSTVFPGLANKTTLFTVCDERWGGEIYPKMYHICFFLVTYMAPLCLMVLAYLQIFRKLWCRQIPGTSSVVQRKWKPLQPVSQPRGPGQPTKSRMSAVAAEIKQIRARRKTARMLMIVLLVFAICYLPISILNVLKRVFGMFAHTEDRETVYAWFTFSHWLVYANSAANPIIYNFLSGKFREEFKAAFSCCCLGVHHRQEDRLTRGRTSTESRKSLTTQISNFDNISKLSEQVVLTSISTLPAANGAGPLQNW
- Assay summary: Test 1: Evaluation of agonist activity for orexin receptor type 2 (aequorin luminescence, intracellular calcium mobilization in CHO cells)
- Assay type: cell-based
- Condition description: relative percentage of luminescence for the luminescence (100%) of Orexin A (100 pM); CHO cells transiently expressing human orexin receptor type 2 and apoaequorin; Orexin A Lot. 641114
Property name: agonist activity (%)
Give the number; % is assumed, so skip it.

Ask: Determine from records and report agonist activity (%) for CC(C)N1CCN([C@H]2CCCC(F)(F)[C@@H]2NC(=O)N2CCC(C)(Oc3ccccn3)CC2)CC1 (racemic) [Example 42]
Reply: 141

Ask: Tell me its agonist activity (%) given CC(C)N1CCN([C@H]2CCCC(F)(F)[C@@H]2NC(=O)N2CCC(c3ccccc3)CC2)CC1 (racemic) [Example 38] as the entry.
Reply: 142

Ask: State its agonist activity (%) for this compound: CC(C)N1CCN([C@H]2CCCC(F)(F)[C@@H]2NC(=O)N2CCC(C)(c3nnc(C4CC4)s3)CC2)CC1 (racemic) [Example 34]
Reply: 183

Ask: Assign agonist activity (%) to the following record: CC(C)N1CCN([C@H]2CCCC(F)(F)[C@@H]2NC(=O)N2CCC(C)(c3nc4c(o3)CCCC4)CC2)CC1 (racemic) [Example 27]
Reply: 162

Ask: Fill in agonist activity (%) for record CC(C)N1CCN([C@H]2CCC[C@@H]2NC(=O)N2CCC(C)(c3cc(C4CC4)on3)CC2)CC1 (racemic) [Example 6]
Reply: 43

Ask: Indicate the recorded agonist activity (%) value for this compound: Cc1ccc(C2(C)CCN(C(=O)N[C@@H]3[C@@H](N4CCN(C(C)C)CC4)CCCC3(F)F)CC2)c(C#N)c1 [Example 60]
Reply: 151

Ask: Write down agonist activity (%) measured for item CC(C)N1CCN([C@H]2CCCC(F)(F)[C@@H]2OC(=O)N2CCC(C)(c3noc(C4CC4)n3)CC2)CC1 [Example 14]
Reply: 178

====

Exercise: for every item that follows, state its recorded agonist activity (%).
- Tested on: Human orexin receptor type 2 (Homo sapiens)
- Construct: expressed in transfected cells; host or cells: CHO cells (transient expression)
- Assay summary: Test 1: Evaluation of agonist activity for orexin receptor type 2 (aequorin luminescence, intracellular calcium mobilization in CHO cells)
- Type: cell-based
- Condition description: relative percentage of luminescence for the luminescence (100%) of Orexin A (100 pM); CHO cells transiently expressing human orexin receptor type 2 and apoaequorin; Orexin A Lot. 641114
Unit % implied. Number only.

Ask: Look up and state reported agonist activity (%) for `CC(C)N1CC[C@H](O[C@H]2CCCC(F)(F)[C@@H]2NC(=O)N2CCC(C)(c3noc([C@@H]4C[C@@H]4C)n3)CC2)C1`
Reply: 174

Ask: For the compound CC(C)N1CCN([C@H]2CCCC(F)(F)[C@@H]2NC(=O)N2CCC(c3ccccn3)CC2)CC1 (racemic) , give its measured agonist activity (%) value.
Reply: 176

Ask: Please give measured agonist activity (%) of the following entry: `Cc1ccc(C2(C)CCN(C(=O)N[C@@H]3[C@@H](O[C@@H]4CCN(C(C)C)C4)CCCC3(F)F)CC2)cc1`
Reply: 175

Ask: Retrieve agonist activity (%) measured for `CC(C)N1CC2CCC(C1)N2[C@H]1CCCC(F)(F)[C@@H]1NC(=O)N1CCC(C)(c2cc(C3CC3)on2)CC1` and print it.
Reply: 155

====

- Tested on: Human orexin receptor type 2 (Homo sapiens, UniProt O43614)
- Construct: expressed in transfected cells; host or cells: CHO cells (transient expression)
- Assay summary: Test 2: Evaluation of agonist activity for orexin receptor type 2 (aequorin luminescence, intracellular calcium mobilization in CHO cells)
- Type: cell-based
- Condition description: relative percentage of luminescence for the luminescence (100%) of Orexin A (100 pM); CHO cells transiently expressing human orexin receptor type 2 and apoaequorin; Orexin A Lot. 671009
Kindly state agonist activity (%) for each of the entries shown.
State the answer as a number, implicitly in %.

Ask: Return reported agonist activity (%). Input compound: `CN(CC1(F)CC1)C1CCN([C@H]2CCCC(F)(F)[C@@H]2NC(=O)N2CCC(C)(c3noc([C@@H]4C[C@@H]4F)n3)CC2)CC1`
Reply: 346

Ask: Return agonist activity (%) (reported value) for this compound: `CC1(CN2CC[C@H](O[C@H]3CCCC(F)(F)[C@@H]3NC(=O)N3CCC(C)(c4noc(C5CC5)n4)CC3)C2)CC1`
Reply: 394

Ask: Provide measured agonist activity (%) value, entry: `CC(C)N1CCN([C@H]2CCCC(F)(F)[C@@H]2NC(=O)N2CCC(C)(c3noc(C4CCC4)n3)CC2)CC1`
Reply: 486

Ask: Query agonist activity (%) for `CC(C)n1cc(O[C@H]2CCCC(F)(F)[C@@H]2NC(=O)N2CCC(C)(c3noc([C@@H]4C[C@@H]4F)n3)CC2)cn1`
Reply: 201

Ask: Determine from records and report agonist activity (%) for `CC(C)N1CCC(O[C@H]2CCCC(F)(F)[C@@H]2NC(=O)N2CCC(C)(c3noc(C4CC4)n3)CC2)CC1`
Reply: 372

Ask: Provide agonist activity (%) value for the following compound: `CN(CC1CC1)C1CN([C@H]2CCCC(F)(F)[C@@H]2NC(=O)N2CCC(C)(c3noc([C@@H]4C[C@@H]4F)n3)CC2)C1`
Reply: 419

Ask: Please look at this compound and report its agonist activity (%): `CC(C)N1CCC(C)(O[C@H]2CCCC(F)(F)[C@@H]2NC(=O)N2CCC(C)(c3noc([C@@H]4C[C@@H]4F)n3)CC2)CC1`
Reply: 359

Ask: Consider the compound `CN(CC1CC1)[C@H]1CCCN([C@H]2CCCC(F)(F)[C@@H]2NC(=O)N2CCC(C)(c3noc([C@@H]4C[C@@H]4F)n3)CC2)CC1` . State its measured agonist activity (%).
Reply: 399

Ask: Kindly indicate its recorded agonist activity (%). Item: `CC(C)N(C)[C@@H]1CCN([C@H]2CCCC(F)(F)[C@@H]2NC(=O)N2CCC(C)(c3noc([C@@H]4C[C@@H]4F)n3)CC2)C1`
Reply: 376

Ask: Determine its reported agonist activity (%): `CC1(c2noc([C@@H]3C[C@@H]3F)n2)CCN(C(=O)N[C@@H]2[C@@H](O[C@H]3CCN(CC4(C(F)(F)F)CC4)C3)CCCC2(F)F)CC1`
Reply: 396

Ask: Please give measured agonist activity (%) of the following entry: `CC(C)N1CCC(S[C@H]2CCCC(F)(F)[C@@H]2NC(=O)N2CCC(C)(c3noc([C@@H]4C[C@@H]4F)n3)CC2)CC1`
Reply: 493

Ask: Return value of agonist activity (%) for input `CN(C1CCC1)C1CCN([C@H]2CCCC(F)(F)[C@@H]2NC(=O)N2CCC(C)(c3noc([C@@H]4C[C@@H]4F)n3)CC2)CC1` , no commentary.
Reply: 392

Ask: Read off the recorded agonist activity (%) for `CC(C)N1CC[C@H](N[C@H]2CCCC(F)(F)[C@@H]2NC(=O)N2CCC(C)(c3noc([C@@H]4C[C@@H]4F)n3)CC2)C1`
Reply: 374

Ask: Quickly give me recorded agonist activity (%) for `CC(C)N1CCC(N(C)[C@H]2CCCC(F)(F)[C@@H]2NC(=O)N2CCC(C)(c3noc([C@@H]4C[C@@H]4F)n3)CC2)CC1`
Reply: 366

Ask: Entry `CN(CC1CC1)[C@H]1CCN([C@H]2CCCC(F)(F)[C@@H]2NC(=O)N2CCC(C)(c3noc(C4CC4)n3)CC2)C1` needs its agonist activity (%) filled in; supply it.
Reply: 385

Ask: Kindly indicate its recorded agonist activity (%). Item: `CC(C)N1CCCN([C@H]2CCCC(F)(F)[C@@H]2NC(=O)N2CCC(C)(c3noc([C@@H]4C[C@@H]4F)n3)CC2)CC1`
Reply: 470

Ask: Read the entry `CC(C)(F)CN1CC[C@H](O[C@H]2CCCC(F)(F)[C@@H]2NC(=O)N2CCC(C)(c3noc([C@@H]4C[C@@H]4F)n3)CC2)C1` and write its reported agonist activity (%).
Reply: 444

Ask: Output agonist activity (%) of `CC(C)N1CCN(C(=O)O[C@H]2CCCC(F)(F)[C@@H]2NC(=O)N2CCC(C)(c3noc([C@@H]4C[C@@H]4F)n3)CC2)CC1`
Reply: 350

Ask: Consider the compound CC(C)N1CCN([C@H]2CCCCC[C@@H]2NC(=O)N2CCC(C)(c3noc(C4CC4)n3)CC2)CC1 (racemic) . State its measured agonist activity (%).
Reply: 368

Ask: Given the compound `CC(C)N1CCC(O[C@H]2CCCC(F)(F)[C@@H]2NC(=O)N2CCC(C)(c3noc([C@@H]4C[C@@H]4F)n3)CC2)CC1` , write its reported agonist activity (%).
Reply: 371

Ask: Input `CC(C)CN(C)[C@H]1CCN([C@H]2CCCC(F)(F)[C@@H]2NC(=O)N2CCC(C)(c3noc([C@@H]4C[C@@H]4F)n3)CC2)C1` , output reported agonist activity (%).
Reply: 402

Ask: Determine from records and report agonist activity (%) for `CC(C)N(C)C1CN([C@H]2CCCC(F)(F)[C@@H]2NC(=O)N2CCC(C)(c3noc([C@@H]4C[C@@H]4F)n3)CC2)C1`
Reply: 391

Ask: Please indicate agonist activity (%) recorded for `CC(C)c1nccc(O[C@H]2CCCC(F)(F)[C@@H]2NC(=O)N2CCC(C)(c3noc([C@@H]4C[C@@H]4F)n3)CC2)n1`
Reply: 16

Ask: Provide agonist activity (%) value for the following compound: `Cc1ccc(C2(C)CCN(C(=O)N[C@@H]3[C@@H](O[C@H]4CCN(CC5(C)CC5)C4)CCCC3(F)F)CC2)cc1`
Reply: 450

Ask: Dear colleague, please send me the reported agonist activity (%) for `CC(C)n1cc(O[C@H]2CCCC(F)(F)[C@@H]2NC(=O)N2CCC(C)(c3noc(C4CC4)n3)CC2)cn1` when you can.
Reply: 112
